List of growth values.
tested on: HT29 colon; assay: NCI-60 one-dose screen, 48 h (100 = growth as untreated, 0 = no growth, -100 = all killed); conditions: 10 µM unless noted
The panel holds about 83,000 compounds, 20% with a hit somewhere; the sample as a whole holds those more often.
The reply should contain only the number, in %.

stdin: Param readout= growth; system= HT29 colon; entry= COc1ccc(-c2c3c(N)c4c(nc3nc3c2c(C)nn3-c2ccccc2)CCCC4)cc1 ; returns value.
stdout: 21.1

stdin: // next record COc1ccc(C2=NOC(CC(=O)N(CCO)CCO)C2)cc1OC1CCCC1 (stereo unspecified)
stdout: 110

stdin: // next record CCOC(=O)c1[nH]c2cc(Cl)ccc2c1[C@@H](C(=O)NC(C)(C)C)N(CC)C(=O)CCCCC#Cc1cccc2c1CN(C1CCC(=O)NC1=O)C2=O (stereo partly specified)
stdout: 8.65

stdin: // next record Cc1c(C)n(CC(O)CNC2CCCCC2C)c2ccccc12 (stereo unspecified)
stdout: -49.6

stdin: // next record c1ccc(-c2nc(N3CCOCC3)c3c4c(sc3n2)CCCCCC4)nc1
stdout: 65.9
